Reported growth values follow for various molecules
Tested on: UACC-257 melanoma
Measurement Protocol: NCI-60 one-dose screen, 48 h (100 = growth as untreated, 0 = no growth, -100 = all killed)
Test Parameters: 10 µM unless noted
This is part of a sample that, as a whole, favours compounds with a hit. Of some 83,000 tested, about 20% had one in any assay.

Molecule	Assay System	growth, %
N#Cc1c(-c2ccccc2)cc(-c2ccccc2)n(CC(=O)NO)c1=O	UACC-257 melanoma	67.5
O=C(Nc1cccc(-n2cc(-c3ccncc3)c(-c3ccc(Cl)c(O)c3)n2)c1)Nc1cccc(C(F)(F)F)c1	UACC-257 melanoma	-11.6
c1ccc(Nc2nc(Nc3ccccc3)nc(Nc3ccccc3)n2)cc1	UACC-257 melanoma	82.9
COc1ccc(C2=Nn3c(nnc3-n3nc(C)cc3C)SC2)cc1	UACC-257 melanoma	64.7
N=C(N)c1ccc(-c2ccc(-c3cncc4ccccc34)s2)cc1F	UACC-257 melanoma	111
COc1cc(C2CC(c3ccc4c(c3)OCO4)=NN2C(C)=O)cc(OC)c1OC (stereo not given)	UACC-257 melanoma	66.5
COc1ccc(C2C(C#N)=C(N)Oc3c2ccc2ccccc32)cc1 (stereo not given)	UACC-257 melanoma	75.1
O=C1c2c(Cl)c(Cl)c(Cl)c(Cl)c2C(=O)C2(Cl)CC=CCC12Cl (stereo not given)	UACC-257 melanoma	-34.4
c1coc(CNc2ccnc(Nc3ccc(OCCN4CCCCC4)cc3)n2)c1	UACC-257 melanoma	87.3
O=[N+]([O-])c1ccc(OCCCOc2ccccc2)cc1	UACC-257 melanoma	100
